target-system: FmlHLD (Escherichia coli, UniProt Q1RBS0)
Sequence (Q1RBS0 25-184): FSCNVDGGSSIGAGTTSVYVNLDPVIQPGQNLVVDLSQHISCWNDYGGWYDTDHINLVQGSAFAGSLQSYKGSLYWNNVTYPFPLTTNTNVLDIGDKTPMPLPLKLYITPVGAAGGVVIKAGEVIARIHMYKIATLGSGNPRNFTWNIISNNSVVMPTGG
Type: binding, Escherichia coli (UPEC strain UTI89)
condition-context: compound at 100 μM; mean with SEM in Table S2; 100 µM
reported-metric: Percent inhibition (PI100) of FmlHLD binding to ds-BSM

The examples below pair each entry with its known result.
[
  {
    "compound": "OC[C@H]1O[C@@H](Oc2cc3c(O)cc(O)cc3[o+]c2-c2ccc(O)c(O)c2)[C@H](O)[C@@H](O)[C@H]1O [24β, cyanidin galactoside]",
    "result": "29%"
  },
  {
    "compound": "O=c1c(O[C@@H]2O[C@H](CO)[C@H](O)[C@H](O)[C@H]2O)c(-c2ccc(O)c(O)c2)oc2cc(O)cc(O)c12 [26β, quercetin galactoside]",
    "result": "14%"
  },
  {
    "compound": "OC[C@H]1O[C@@H](Oc2ccccc2)[C@H](O)[C@@H](O)[C@H]1O [1β, phenyl β-galactoside]",
    "result": "77%"
  }
]

--- query ---
query: What value of Percent inhibition (PI100) of FmlHLD binding to ds-BSM has been recorded for this entry: O=c1ccc2nc3ccc(O[C@@H]4O[C@H](CO)[C@H](O)[C@H](O)[C@H]4O)cc3oc-2c1
result: 80%
